The measurements presented in this section are drawn from ChEMBL document CHEMBL1817572.

Biological target: Vasopressin V2 receptor (Homo sapiens, UniProt P30518)
Sequence (P30518 whole entry): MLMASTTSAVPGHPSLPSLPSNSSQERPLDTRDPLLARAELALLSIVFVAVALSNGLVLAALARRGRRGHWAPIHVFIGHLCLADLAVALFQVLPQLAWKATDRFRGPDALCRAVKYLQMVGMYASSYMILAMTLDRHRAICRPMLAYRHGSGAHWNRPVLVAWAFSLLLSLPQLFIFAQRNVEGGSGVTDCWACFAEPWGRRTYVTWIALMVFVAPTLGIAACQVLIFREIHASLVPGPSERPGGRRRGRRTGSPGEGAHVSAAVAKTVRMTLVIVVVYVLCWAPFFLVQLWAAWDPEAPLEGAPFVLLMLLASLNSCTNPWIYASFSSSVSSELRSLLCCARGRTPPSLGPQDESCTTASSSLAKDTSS
Assay: Agonist activity at recombinant human vasopressin V2 receptor expressed in HEK293 cells by luciferase reporter gene assay
Format: functional, cell-based
Details: read-out: EC50
pEC50: −log10 of the molar value. Numbered stars: 1 amine (or outer) side, 2 acyl side, 3 side chain; on linkers, the order of the positions; unused ones are H or OH. Bridge positions count the residues as written; N and C are the ends. Square brackets hold non-standard residues; d marks the D form. Peptide text beside a SMILES is read from it. * marks the point of attachment. X4 = CONC(=O)CC[C@H](N[*:1])C(=O)[*:2]; 3Thi = N[C@@H](Cc1ccsc1)C(=O)O; Cha = N[C@@H](CC1CCCCC1)C(=O)O; Orn = NCCC[C@H](N)C(=O)O; Dab = NCC[C@H](N)C(=O)O; N(Me)OMe = CON(C)*
Could you label it 1 if measured pEC50 is 7 or higher, and -1 otherwise?

MOLECULE	ASSIGNED LABEL
NCCC[C@H](NC(=O)[C@@H]1CCCN1C(=O)[C@@H]1CSSC[C@H](N)C(=O)N[C@@H](Cc2ccccc2)C(=O)N[C@@H](Cc2ccccc2)C(=O)N[C@@H](CCC(N)=O)C(=O)N[C@@H](CC(N)=O)C(=O)N1)C(=O)NCC(N)=O (H-CFFQNCP[Orn]G-NH2; disulfide 1-6)	1
CC[C@H](C)[C@@H]1NC(=O)[C@H](Cc2ccccc2)NC(=O)[C@@H](N)CSSC[C@@H](C(=O)N2CCC[C@H]2C(=O)N[C@@H](CCN)C(=O)NCC(N)=O)NC(=O)[C@H](CC(N)=O)NC(=O)[C@H](CC(=O)NC)NC1=O (H-CFID(NHMe)NCP[Dab]G-NH2; disulfide 1-6)	-1
CC[C@H](C)[C@@H]1NC(=O)[C@H](Cc2ccccc2)NC(=O)[C@@H](N)CSSC[C@@H](C(=O)N2CCC[C@H]2C(=O)N[C@@H](CCCN)C(=O)NCC(N)=O)NC(=O)[C@H](CC(N)=O)NC(=O)[C@H](CCC(=O)NOC)NC1=O (H-CFI[X4]NCP[Orn]G-NH2; disulfide 1-6)	-1
CC[C@H](C)[C@@H]1NC(=O)[C@H](Cc2ccsc2)NC(=O)[C@@H](N)CSSC[C@@H](C(=O)N2CCC[C@H]2C(=O)N[C@@H](CCN)C(=O)NCC(N)=O)NC(=O)[C@H](CC(N)=O)NC(=O)[C@H](CCC(N)=O)NC1=O (H-C[3Thi]IQNCP[Dab]G-NH2; disulfide 1-6)	-1
CC[C@H](C)[C@@H]1NC(=O)[C@H](CC2CCCCC2)NC(=O)[C@@H](N)CSSC[C@@H](C(=O)N2CCC[C@H]2C(=O)N[C@@H](CCN)C(=O)NCC(N)=O)NC(=O)[C@H](CC(N)=O)NC(=O)[C@H](CCC(N)=O)NC1=O (H-C[Cha]IQNCP[Dab]G-NH2; disulfide 1-6)	-1
CC[C@H](C)[C@@H]1NC(=O)[C@H](Cc2ccccc2)NC(=O)[C@@H](N)CSSC[C@@H](C(=O)N2CCC[C@H]2C(=O)N[C@@H](CCCN)C(=O)NCC(N)=O)NC(=O)[C@H](CC(N)=O)NC(=O)[C@H](CCC(=O)N(C)OC)NC1=O (H-CFIE(N(Me)OMe)NCP[Orn]G-NH2; disulfide 1-6)	-1
